B1: glmS ribozyme (parent)
chain: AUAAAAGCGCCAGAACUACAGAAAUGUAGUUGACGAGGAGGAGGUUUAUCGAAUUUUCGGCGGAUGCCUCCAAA

variants of: B1; test: KM; higher = weaker cofactor use; RNA array; settings: with glucosamine-6-phosphate
Classify by measured KM: yes if it is equal to or exceeds 2000 µM, no if it is smaller.

In [3]: df
Out[3]:
                                 seq_string  cat
0  AUAAAUGCGCCAGAACUACAGAAAUGUAGUUGACGAGGAGGAGGUUUAUCGAAUUCUCGGCGGAUGCCUCCAAA  yes
1  AUAAAAGCGCCAGCACUACAGAAAUGUAGUCGACGAGGAGGAGGUUUAUCGAAUUUUCGGCGGAUGCCUCCAAA  yes
2  AUAAAAGCGCCAGGACUACAGAAAUGUAGUUGACGAGGAGGAGGUUUGUCGAAUUUUCGGCGGAUGCCUCCAAA   no
3  AUAAAAGCGCCAGGACUACAGAAAUGUAGUUGACGAUGAGGAGGUUUAUCGAAUUUUCGGCGGAUGCCUCCAAA   no
4  AUAAAAGCGCCAGACCUACAGAAAUGUAGUUGACGAGGAGGAGGUUUAUCGAAUUUUCGGCGGAUGCCUCGAAA   no

Test whether the variant AUAAAAGCGCCAGAACUACAGAAAUGUAGUAGACGAGGAGGAGGUUUAUCGAAUUUUCGGCGGAAGCCUCCAAA records KM of 2000 µM or higher. yes

Another: AUAAAAGCGCCAGAACUACAGAAAUGUAGUUGACGAGGAGGAAGAUUAUCGAAUUUUCGGCGGAUGCCUCCAAA yes

Then this variant: AUAAAGGCGCCAGAACUACAGAAAUGUAGUUGACGAGGAGGACGUUUAUCGAAUUUUCGGCGGAUGCGUCCAAA no

Now consider AUAAAAGCGCCAGAAUUACAGAAAUGUAGUUGACGAGGAGGAGGUUUAUCGAAUUUUCGGCGGAUCCCUCCAAA . no

Then AUAAAAGCGCCAGAACUACAGAAAUGUAGUUGACGAGGAUGAGGUUUAUCGUAUUUUCGGCGGAUGCCUCCAAA ? yes

Queued: AUAAAGGCGCCAGAACUACAGAAAUGUAGUUGACGAGGAGGGGGUUUAUCGAAUUUUCGGCGGAUGCCUCCAAA yes

Entry AUAAAAGCGCCAAGACUACAGAAAUGUAGUUGACGAGGAGGAGGUUUAUCGAAUUUUCGGCGGAUGCCUCCAAA please yes

Thanks! And AUAAAAGCGCCAGAACUACAGAAAUGUACUUGACGAGGAGGAGGUUUAUCGAAUCUUCGGCGGAUGCCUCCAAA ? yes

Proceed to AUAAAAGCGCCAGAACUACAGAAAUGUAGUUUACGAGGAGGGGGUUUAUCGAAUUUUCGGCGGAUGCCUCCAAA yes

Check AUAAAAGCGCCUGAACUACAGAAAUGUAGUUAACGAGGAGGAGGUUUAUCGAAUUUUCGGCGGAUGCCUCCAAA too. yes
